# assay overview: NCI Yeast Anticancer Drug Screen. Data for the mec2-1 strain (AID 157)
# condition context: S. cerevisiae mec2-1 strain, at 50.0 µM, active compounds read high
About 79,000 compounds went through this panel and 15% of them were active in at least one assay; those are over-represented in the sample as a whole. The source made the active and inactive calls. No stated cut-off is given here; in the data, active means growth inhibition above about 70%; inactive means the rest.
quantity name: growth inhibition

molecule=CC1CCCC(=O)CCC1 observed_result="-4.6% (inactive)"
molecule=N#CCc1nc(-c2cc3ccccc3oc2=O)cs1 observed_result="16.3% (inactive)"
molecule=O=C1c2ccccc2C(=O)N1[C@@H](Cc1ccccc1)C(=O)n1cccc1CO observed_result="21.4% (inactive)"
molecule=CC(=O)CC(=O)NCc1ccncc1 observed_result="8.1% (inactive)"
molecule="CCOC(=O)NC1CCc2ccccc2C1 (stereo not given)" observed_result="0.3% (inactive)"
